molecular target: human MC2R (Homo sapiens); construct: host or cells: GeneBLAzer MC2R-CRE-bla CHO-K1 cells; assay: Measurement of human MC2R inhibitory activity using intracellular cAMP concentration as an indicator; type: cell-based; settings: test compound at 1 µM; GeneBLAzer MC2R-CRE-bla CHO-K1 cells; ACTH (Human 1-24) final concentration 3 pM; intracellular cAMP by HTRF; read-out: MC2R inhibition rate (% of inhibition)
Readout Label: inhibition at 1 µM (%)

CCOc1ncccc1-c1ccc(N2CCN3C(=O)N(c4ccc(Cl)cc4C(F)(F)F)CC3(C)C2)c(C=O)n1 (stereo not drawn); 99
CCOc1ccccc1-c1ccc(N2C[C@H]3CN(c4ccc(Cl)cc4C(F)(F)F)C(=O)N3C[C@H]2C)c(C(=O)N[C@@H]2CC(=O)N(C)C2)n1; 100
CCOc1ncccc1-c1ccc(N2CCN3C(=O)N(c4ccc(Cl)cc4C(F)(F)F)C[C@@H]3C2)c(C(=O)NCC2(O)CC2)n1; 100

====

target: human MC2R (Homo sapiens); construct: host or cells: GeneBLAzer MC2R-CRE-bla CHO-K1 cells; test: Measurement of human MC2R inhibitory activity using intracellular cAMP concentration as an indicator; assay type: cell-based; details: test compound at 1 µM; GeneBLAzer MC2R-CRE-bla CHO-K1 cells; ACTH (Human 1-24) final concentration 3 pM; intracellular cAMP by HTRF; read-out: MC2R inhibition rate (% of inhibition)
Readout Label: inhibition at 1 µM (%)

CCOc1ncccc1-c1ccc(N2CCN3C(=O)N(c4ccc(Cl)cc4C(F)(F)F)C[C@@H]3C2)c(C(=O)NCCCc2ccccn2)n1 [Example 14]; 100
CCOc1ncccc1-c1ccc(N2CCN3C(=O)N(c4ccc(Cl)cc4C(F)(F)F)CC3C2)c(C(N)=O)n1 (stereo not drawn) [Example 2]; 99
CCOc1ncccc1-c1ccc(N2CCN3C(=O)N(c4ccc(Cl)cc4C(F)(F)F)C[C@@H]3C2)c(C(=O)NC2CCOC2)n1 (stereo partly drawn) [Example 20]; 99
CCOc1ncccc1-c1ccc(N2C[C@H]3CN(c4ccc(Cl)cc4C(F)(F)F)C(=O)N3C[C@H]2CC)c(C(=O)N[C@@H]2CC(=O)N(C)C2)n1 [Example 49]; 100
CCOc1ncccc1-c1ccc(N2C[C@H]3CN(c4ccc(C(F)(F)F)cc4C#N)C(=O)N3C[C@H]2CC)c(C(=O)N[C@@H]2CC(=O)N(C)C2)n1 [Example 57]; 100
CCOc1ncccc1-c1ccc(N2C[C@H]3CN(c4ccc(Cl)cc4C(F)(F)F)C(=O)N3C[C@H]2CC)c(C(=O)NCC2(O)COC2)n1 [Example 30]; 100
CCOc1ncccc1-c1ccc(N2CCN3C(=O)N(c4ccc(Cl)cc4C(F)(F)F)C[C@@H]3C2)c(C(=O)NC2CCN(C(=O)OC(C)(C)C)C2)n1 (stereo partly drawn) [Example 17]; 91
CCOc1ncccc1-c1ccc(N2C[C@H]3CN(c4ccc(Cl)cc4C(F)(F)F)C(=O)N3C[C@H]2CC)c(C(=O)NC[C@@H]2CCN2C(=O)OC(C)(C)C)n1 [Example 45]; 100
CCOc1ncccc1-c1ccc(N2C[C@H]3CN(c4ccc(Cl)cc4C(F)(F)F)C(=O)N3C[C@H]2CC)c(C(=O)NC[C@@H]2CCN2)n1 [Example 46]; 100
CCOc1ncccc1-c1ccc(N2C[C@H]3CN(c4ccc(Cl)cc4C(F)(F)F)C(=O)N3C[C@H]2CC)c(C(=O)NCCNC(C)=O)n1 [Example 36]; 100
CCOc1ncccc1-c1ccc(N2CCN3C(=O)N(c4ccc(Cl)cc4C(F)(F)F)C[C@@H]3C2)c(C(=O)NCCS(C)(=O)=O)n1 [Example 18]; 100
CCOc1ncccc1-c1ccc(N2C[C@H]3CN(c4ccc(F)cc4C(F)(F)F)C(=O)N3C[C@H]2CC)c(C(=O)N[C@@H]2CC(=O)N(C)C2)n1 [Example 52]; 100

====

biological target: human MC2R (Homo sapiens); construct: host or cells: GeneBLAzer MC2R-CRE-bla CHO-K1 cells; test: Measurement of human MC2R inhibitory activity using intracellular cAMP concentration as an indicator; format: cell-based; conditions: test compound at 1 µM; GeneBLAzer MC2R-CRE-bla CHO-K1 cells; ACTH (Human 1-24) final concentration 3 pM; intracellular cAMP by HTRF; read-out: MC2R inhibition rate (% of inhibition)
Readout Label: inhibition at 1 µM (%)

CCOc1ccccc1-c1ccc(N2C[C@H]3CN(C4(C(F)(F)F)CC4)C(=O)N3C[C@H]2CC)c(C(=O)N[C@@H]2CC(=O)N(C)C2)n1 [Example 62]; 98
CCOc1ncccc1-c1ccc(N2C[C@H]3CN(c4ccc(Cl)cc4C(F)(F)F)C(=O)N3C[C@H]2CC)c(C(=O)N[C@@H]2CCNC2=O)n1 [Example 47]; 100
CCOc1ncccc1-c1ccc(N2C[C@H]3CN(c4ccc(Cl)cc4C#N)C(=O)N3C[C@H]2CC)c(C(=O)N[C@@H]2CC(=O)N(C)C2)n1 [Example 54]; 100

====

target: human MC2R (Homo sapiens, UniProt Q01718); construct: host or cells: GeneBLAzer MC2R-CRE-bla CHO-K1 cells; assay: Measurement of human MC2R inhibitory activity using intracellular cAMP concentration as an indicator; format: cell-based; conditions: test compound at 1 µM; GeneBLAzer MC2R-CRE-bla CHO-K1 cells; ACTH (Human 1-24) final concentration 3 pM; intracellular cAMP by HTRF; read-out: MC2R inhibition rate (% of inhibition)
Sequence (Q01718 whole entry): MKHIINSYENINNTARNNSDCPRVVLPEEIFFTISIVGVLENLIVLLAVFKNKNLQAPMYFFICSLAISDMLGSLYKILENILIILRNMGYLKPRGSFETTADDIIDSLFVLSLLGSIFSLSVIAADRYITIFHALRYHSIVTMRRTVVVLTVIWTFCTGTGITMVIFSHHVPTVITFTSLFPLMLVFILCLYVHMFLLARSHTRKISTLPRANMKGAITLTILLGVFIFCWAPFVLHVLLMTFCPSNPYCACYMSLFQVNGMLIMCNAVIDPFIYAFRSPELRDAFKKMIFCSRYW
Sequence (Q8TCY5 whole entry partner): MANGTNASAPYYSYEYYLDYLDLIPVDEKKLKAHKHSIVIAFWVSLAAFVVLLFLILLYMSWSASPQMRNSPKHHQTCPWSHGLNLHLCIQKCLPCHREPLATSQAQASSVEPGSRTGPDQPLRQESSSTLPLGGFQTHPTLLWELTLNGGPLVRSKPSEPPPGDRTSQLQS
Readout Label: inhibition at 1 µM (%)

CCOc1ncccc1-c1ccc(N2C[C@H]3CN(c4ccc(Cl)cc4C(F)(F)F)C(=O)N3C[C@H]2CC)c(C(=O)NCC2(O)CC2)n1; 100
CCOc1ncccc1-c1ccc(N2C[C@H]3CN(c4ccc(Cl)cc4C(F)(F)F)C(=O)N3C[C@H]2CC)c(C(=O)N[C@H]2CC(=O)N(C)C2)n1; 100
CCOc1ncccc1-c1ccc(N2CCN3C(=O)N(c4ccc(Cl)cc4C(F)(F)F)C[C@@H]3C2)c(C(=O)NCCC2CCOCC2)n1; 99
CCOc1ncccc1-c1ccc(N2CCN3C(=O)N(C4(C(F)(F)F)CCCC4)CC3C2)c(C(N)=O)n1 (stereo not drawn); 81
CCOc1ncccc1-c1ccc(N2C[C@H]3CN(c4ccc(Cl)cc4C(F)(F)F)C(=O)N3C[C@H]2CC)c(C(N)=O)n1; 100
CCOc1ncccc1-c1ccc(N2C[C@H]3CN(c4ccc(Cl)cc4C(F)(F)F)C(=O)N3C[C@H]2CC)c(C(=O)NCC(=O)NC)n1; 100

====

target: human MC2R (Homo sapiens); construct: host or cells: GeneBLAzer MC2R-CRE-bla CHO-K1 cells; experiment: Measurement of human MC2R inhibitory activity using intracellular cAMP concentration as an indicator; format: cell-based; conditions: test compound at 1 µM; GeneBLAzer MC2R-CRE-bla CHO-K1 cells; ACTH (Human 1-24) final concentration 3 pM; intracellular cAMP by HTRF; read-out: MC2R inhibition rate (% of inhibition)
Readout Label: inhibition at 1 µM (%)

CCOc1ncccc1-c1ccc(N2C[C@H]3CN(c4ccc(Cl)cc4C(F)(F)F)C(=O)N3C[C@H]2CC)c(C(=O)N[C@H](C)C(=O)NC)n1 [Example 40]; 100
CCOc1ncccc1-c1ccc(N2C[C@H]3CN(c4ccc(Cl)cc4C(F)(F)F)C(=O)N3C[C@H]2CC)c(C(=O)N[C@H]2CNC(=O)C2)n1 [Example 38]; 100
CCOc1ncccc1-c1ccc(N2CCN3C(=O)N(c4ccc(Cl)cc4C(F)(F)F)C[C@@H]3C2)c(C(=O)NC2CCNC2)n1 (stereo partly drawn) [Example 28]; 100
CCOc1ncccc1-c1ccc(N2C[C@H]3CN(c4ccc(Cl)cc4C(F)(F)F)C(=O)N3C[C@H]2CC)c(C(=O)NC2CNC(=O)C2)n1 (stereo partly drawn) [Example 29]; 100
CCOc1ncccc1-c1ccc(N2CCN3C(=O)N(c4ccc(Cl)cc4C(F)(F)F)C[C@@H]3C2)c(C(=O)NCCc2ccccn2)n1 [Example 19]; 100
COc1ncccc1-c1ccc(N2C[C@H]3CN(c4ccc(Cl)cc4C(F)(F)F)C(=O)N3C[C@H]2C)c(C(=O)N[C@@H]2CC(=O)N(C)C2)n1 [Example 61]; 97
CCOc1ncccc1-c1ccc(N2C[C@H]3CN(c4ccc(F)cc4C#N)C(=O)N3C[C@H]2CC)c(C(=O)N[C@H]2CNC(=O)C2)n1 [Example 55]; 100
CCOc1ncccc1-c1ccc(N2C[C@H]3CN(c4ccc(F)cc4C#N)C(=O)N3C[C@H]2CC)c(C(=O)N[C@@H]2CC(=O)N(C)C2)n1 [Example 58]; 100
CCOc1ncccc1-c1ccc(N2C[C@H]3CN(c4ccc(Cl)cc4C(F)(F)F)C(=O)N3C[C@H]2CC)c(C(=O)NC2CC(=O)N(C)C2)n1 (stereo partly drawn) [Example 42]; 100
CCOc1ncccc1-c1ccc(N2CCN3C(=O)N(c4ccc(Cl)cc4C(F)(F)F)C[C@@H]3C2)c(C(=O)NCCOC)n1 [Example 12]; 100
CCOc1ncccc1-c1ccc(N2C[C@H]3CN(c4ccc(Cl)cc4C(F)(F)F)C(=O)N3C[C@H]2CC)c(C(=O)N[C@@H]2CCNC2)n1 [Example 31]; 100
CCOc1ncccc1-c1ccc(N2C[C@H]3CN(c4ccc(Cl)cc4C(F)(F)F)C(=O)N3C[C@H]2CC)c(C(=O)O)n1 [Example 38a]; 91

Values were extracted from patent EP4714953A1.
